Kd values, listed per item
# System tested: HIV RRE RNA
# Experimental details: Fluorescence quenching binding to 5'-fluorescein labeled RRE RNA
# Experimental context: 20 mM Hepes, 100 mM NaCl, pH 7.4, room temperature

{"Substance": "GGHTRQARRNRRRRWRERQR [Rev1]", "System tested": "HIV RRE RNA", "Kd": "~30 nM"}

Then there is this substance:
query: Look up Kd for this substance: copper complex of Rev1 peptide GGHTRQARRNRRRRWRERQR [Cu-Rev1]
result: ~35 nM

* * *

# System tested: HIV TAR RNA
# Experimental details: Fluorescence quenching binding to 5' FL-labeled TAR RNA (binding specificity)
# Experimental context: 20 mM Hepes, 100 mM NaCl, pH 7.4, room temperature
pKd: −log10 of the molar value.
pKd values, listed per item

{"Substance": "GGHTRQARRNRRRRWRERQR [Rev1]", "pKd": "~5.30"}

Then there is this substance:
query: // fetch HIV TAR RNA pKd for copper complex of Rev1 peptide GGHTRQARRNRRRRWRERQR [Cu-Rev1]
result: ~5.30
